- Tested on: CAKI-1 renal
- assay remarks: NCI tumour cell line growth inhibition, 48 h
experimental endpoint: TGI

Known TGI results, listed for orientation:
O=C(/C(=C/c1ccccc1)CN1CCCCC1)c1ccccc1; 2.84 µM
O=c1cc(-c2ccccc2)[nH]c2cc(O)ccc12; 71.6 µM
CCOC(=O)CSc1nc(-c2ccccc2)c(C#N)c(=O)[nH]1; > 100 µM
C=CC(=O)Nc1cccc(C)c1Nc1cc(-c2cccnc2Cc2c(C)c(OC)cc(OC)c2C)ncn1; > 100 µM
COc1nc(N)c(NC2OC(CO)C(O)C2O)c(=O)[nH]1 (centres undefined); > 100 µM
CCOC(=O)C1=C(NC)OC/C1=N\NC(=O)c1ccccc1O; > 100 µM
COc1ccc(NC(=O)CC(=O)N2N=C(C)C(N=Nc3ccc(S(=O)(=O)c4ccc(N=NC5C(=O)N(C(=O)CC(=O)Nc6ccc(OC)cc6)N=C5C)cc4)cc3)C2=O)cc1 (centres undefined); > 100 µM
C=C1CC[C@@H]2[C@](C)(COC(C)=O)[C@@H](O)CC[C@@]2(C)[C@@H]1COc1ccc2ccc(=O)oc2c1; > 100 µM
COc1cc2c(cc1OC(=O)CC(C)O)C1C(OC2=O)C(OC(C)=O)C=C2CCN(C)[C@H]21 (some centres undefined); > 100 µM
O=C(O[C@H]1[C@@H](O)[C@H](n2cnc3c(Cl)ncnc32)O[C@@H]1COC(c1ccccc1)(c1ccccc1)c1ccccc1)c1ccccc1; 10.1 µM

// returns reported TGI for input COc1cccc(/C=C2/Sc3scc(-c4ccccc4)[n+]3C2=O)c1O 47.7 µM

Also need COC(=O)c1c2n(c3ccccc13)C[C@H]1OC(C)(C)O[C@@H]21 , thanks. > 100 µM

Also need COc1ccc(C2=C(Cl)c3cc(OC)c(OC)cc3C2Cl)cc1OC (centres undefined) , thanks. 35.2 µM

Also need O=C(c1ccccc1)C(CN1CCOCC1)c1ccccc1 (centres undefined) , thanks. 1.95 µM

###

Here the recorded log10 TGI is given for each entry.
- System: A498 renal
- assay remarks: NCI tumour cell line growth inhibition, 48 h
// stored as log10 of TGI expressed in µM

Known log10 TGI results, listed for orientation:
N#Cc1c(N)oc(-c2cccc([N+](=O)[O-])c2)c1C#N; 1.79
COC(=O)C1=CSC2(S1)C(C(=O)OC)=CSc1c2ssc1=Nc1ccccc1 (stereo not given); 0.82
CC(C)(C)c1n[nH]c(=S)n(/N=C/c2ccc(F)c(Oc3ccccc3)c2)c1=O; 1.84
c1ccc2c(c1)c(NCCCCN1CCCCC1)cc1c3ccccc3c(NCCCCN3CCCCC3)cc21; 1.52
N=C(N)c1ccc(N2CCCN(c3ccc(C(=N)N)cc3)CC2)cc1; 0.98

// returns reported log10 TGI for input COc1cc2c(cc1OC(=O)CC(C)O)C1C(OC2=O)C(OC(C)=O)C=C2CCN(C)[C@H]21 (stereo not given in full) 1.66

###

- System: OVCAR-4 ovarian
- assay remarks: NCI tumour cell line growth inhibition, 48 h
Here the recorded TGI is given for each entry.

CN1CCN(Cc2ccc(NC(=O)c3cncc(C#Cc4cnc(N)c5ccncc45)c3)cc2C(F)(F)F)CC1; 6.32 µM
O=C1c2c(c3c4ccccc4[nH]c3c3ccc4ccccc4c23)C(=O)N1CCN1CCCCC1; 5.74 µM
N/C(=N\N=C\c1ccc(-c2ccccc2)cc1)N[N+](=O)[O-]; > 100 µM

// returns reported TGI for input CCCCNCC(=O)O[C@]1(CC)C(=O)OCc2c1cc1n(c2=O)Cc2cc3ccccc3nc2-1 20.4 µM

Also need Cc1cc(N/N=C/c2nc(-c3ccc(Br)cc3)oc2C)c2cc(Cl)ccc2n1 , thanks. > 100 µM

###

- Test system: SN12C renal
- assay remarks: NCI tumour cell line growth inhibition, 48 h
Mark satisfied for reported TGI of 40 µM or greater; mark not satisfied for anything smaller.

CN(C)c1ccc(C=C2C(=O)OC(C)(C)OC2=O)cc1Br; satisfied
COc1ccc(OC)c(NC(=O)CCC/C(CC(=O)c2ccc(O)c(OC)c2)=N\NC(=O)C[N+](C)(C)C)c1; satisfied
C1=NCCNCCN=Cc2ccc(cc2)OCc2cccc(n2)COc2ccc1cc2; satisfied
N#CC(c1ccccc1)c1nc2ccc(=N)cc-2n(O)c1C(C#N)c1ccccc1 (stereo unspecified); satisfied
O=C1C(=O)N(c2ccc(Cl)c(Cl)c2)C(=O)C(=O)C1c1nc2ccccc2s1; satisfied
COC(=O)Cn1c2c(c3c(O)cccc31)C(=O)c1ccccc1-2; satisfied
C=CC(=O)Nc1cccc(C)c1Nc1cc(-c2cccnc2Cc2c(C)c(OC)cc(OC)c2C)ncn1; satisfied
O=C(NCCCCCCCCNC(=O)c1cc(-c2ccccc2)nc2ccccc12)c1cc(-c2ccccc2)nc2ccccc12; satisfied

Entry COc1ccc(NC(=O)CC(=O)N2N=C(C)C(N=Nc3ccc(S(=O)(=O)c4ccc(N=NC5C(=O)N(C(=O)CC(=O)Nc6ccc(OC)cc6)N=C5C)cc4)cc3)C2=O)cc1 (stereo unspecified) : is its TGI no less than 40 µM? satisfied

Also need Cc1ccc(C2=NOC3=c4ccccc4=CSC3=C2c2ccc([N+](=O)[O-])cc2)cc1 , thanks. satisfied

Also need COc1cccc(/C=C2/Sc3scc(-c4ccccc4)[n+]3C2=O)c1O , thanks. not satisfied

###

Here the recorded TGI is given for each entry.
- System: KM12 colon
- assay remarks: NCI tumour cell line growth inhibition, 48 h

CC1CC[C@@H](C(C)C)[C@H](Oc2nnc(C3OC(CO)C(O)C3O)o2)C1 (stereo not given in full); > 100 µM

Request: TGI, test system KM12 colon, entry CN(C)c1nc(=Nc2ccc3ccccc3c2)ss1 > 100 µM

Also need COC(=O)c1c2n(c3ccccc13)C[C@H]1OC(C)(C)O[C@@H]21 , thanks. > 100 µM

###

- System: SK-MEL-28 melanoma
- assay remarks: NCI tumour cell line growth inhibition, 48 h
experimental endpoint: GI50

COc1cc2nc(N3CCCC3)nc(NCC3CCCCC3)c2cc1OC; 1.55 µM

// returns reported GI50 for input N#C/C(=C\c1c(-c2ccccc2)[nH]c2ccccc12)S(=O)(=O)c1ccccc1 5.97 µM

Also need COC(=O)Cn1c2c(c3c(O)cccc31)C(=O)c1ccccc1-2 , thanks. > 100 µM

Also need Cn1c2c(cc(S(=O)(=O)c3ccccc3)c1=O)CCc1c-2cnn1-c1ccc(Cl)cc1 , thanks. 3.24 µM

Also need COc1cccc(NC(=O)c2sc3nc4c(cc3c2N)CN(Cc2ccccc2)CC4)c1 , thanks. 2.8 µM

###

- Tested on: SR leukemia
- assay remarks: NCI tumour cell line growth inhibition, 48 h; in the data active = GI50 below about 0.43 µM; inactive = the rest
Log the outcome using a class from Yes for active, No for inactive

CC1=C(CCC(C)N(C)Cc2ccc(OCCCN3CCCC3)cc2)C(C)(C)CCC1 (stereo not given); No

Name the outcome recorded for N#Cc1c(N/N=C/c2c(Cl)cccc2Cl)nc(N)nc1N1CCOCC1 in the assay. No

Also need CCN1CCC(CCOC)(CN2c3ccccc3Sc3ccc(Cl)cc32)C1 (stereo not given) , thanks. No

Also need COc1ccc2cc(-c3ccoc(=O)c3-c3cc(OC)c(OC)c(OC)c3)ccc2c1 , thanks. Yes

Also need N=C(N)c1ccc(N2CCCN(c3ccc(C(=N)N)cc3)CC2)cc1 , thanks. No

Also need COc1ccc(-c2n[nH]nc2-c2cc(OC)c3c(c2OC)OCO3)cc1 , thanks. Yes

###

- Tested on: MALME-3M melanoma
- assay remarks: NCI tumour cell line growth inhibition, 48 h
Here the recorded TGI is given for each entry.
Respond with the bare value in µM.

Cc1ccc(N2C(=O)C3c4[nH]c5ccccc5c4C4CCC(C(C)(C)C)CC4C3C2=O)cc1 (configuration not stated); 22.6
Cc1ccc(-c2cc(-c3ccc(C)cc3)nc(NCCNc3ccnc4cc(Cl)ccc34)n2)cc1; 3.52
C[C@@H]1CC[C@H]2C(COCCOCC3=C(C(F)(F)F)O[C@@H]4O[C@@]5(C)CC[C@H]6[C@H](C)CC[C@@H]3[C@@]46OO5)=C(C(F)(F)F)O[C@@H]3O[C@@]4(C)CC[C@@H]1[C@]32OO4; 9.26
Nc1c2c(nc3ccccc13)CCCCCC2; 32.6
CCN=C1C=CC(=C(c2ccc(N)cc2)c2ccc(N(CC)CC)c(C)c2)C=C1; 1.23
COc1cc2c(cc1OCCCCOc1cc3c(cc1OC)C(=O)N1CCC[C@H]1CN3)N=C[C@@H]1CCCN1C2=O; 4.1
COc1ccc(-c2c(N)n(-c3nc4ccccc4s3)c(=O)c3cc([N+](=O)[O-])ccc23)cc1; 93.7
Cc1cc2c3ccc(C)[n+](C)c3ccc2n1C; 12.7

// returns reported TGI for input COc1cccc(NC(=O)c2sc3nc4c(cc3c2N)CN(Cc2ccccc2)CC4)c1 16.6

###

- Tested on: 786-0 renal
- assay remarks: NCI tumour cell line growth inhibition, 48 h
Here the recorded TGI is given for each entry.

Known TGI results, listed for orientation:
CNC(=O)N1CN(c2ccccc2)C2(CCN(CCCC(=O)c3ccc(F)cc3)CC2)C1=O; 87.1 µM
CCOC(=O)C1Oc2ccc([N+](=O)[O-])c3c2C1(O)CCC3 (stereo unspecified); > 100 µM

Please examine the following record next.
// returns reported TGI for input C/C=C/[P+](c1ccccc1)(c1ccccc1)c1ccccc1 37.6 µM
